Target: Separase (Homo sapiens, UniProt Q14674)
Construct: made in house; host or cells: 293T cells; released from IgG-Agarose by TEV protease
Sequence (Q14674 whole entry): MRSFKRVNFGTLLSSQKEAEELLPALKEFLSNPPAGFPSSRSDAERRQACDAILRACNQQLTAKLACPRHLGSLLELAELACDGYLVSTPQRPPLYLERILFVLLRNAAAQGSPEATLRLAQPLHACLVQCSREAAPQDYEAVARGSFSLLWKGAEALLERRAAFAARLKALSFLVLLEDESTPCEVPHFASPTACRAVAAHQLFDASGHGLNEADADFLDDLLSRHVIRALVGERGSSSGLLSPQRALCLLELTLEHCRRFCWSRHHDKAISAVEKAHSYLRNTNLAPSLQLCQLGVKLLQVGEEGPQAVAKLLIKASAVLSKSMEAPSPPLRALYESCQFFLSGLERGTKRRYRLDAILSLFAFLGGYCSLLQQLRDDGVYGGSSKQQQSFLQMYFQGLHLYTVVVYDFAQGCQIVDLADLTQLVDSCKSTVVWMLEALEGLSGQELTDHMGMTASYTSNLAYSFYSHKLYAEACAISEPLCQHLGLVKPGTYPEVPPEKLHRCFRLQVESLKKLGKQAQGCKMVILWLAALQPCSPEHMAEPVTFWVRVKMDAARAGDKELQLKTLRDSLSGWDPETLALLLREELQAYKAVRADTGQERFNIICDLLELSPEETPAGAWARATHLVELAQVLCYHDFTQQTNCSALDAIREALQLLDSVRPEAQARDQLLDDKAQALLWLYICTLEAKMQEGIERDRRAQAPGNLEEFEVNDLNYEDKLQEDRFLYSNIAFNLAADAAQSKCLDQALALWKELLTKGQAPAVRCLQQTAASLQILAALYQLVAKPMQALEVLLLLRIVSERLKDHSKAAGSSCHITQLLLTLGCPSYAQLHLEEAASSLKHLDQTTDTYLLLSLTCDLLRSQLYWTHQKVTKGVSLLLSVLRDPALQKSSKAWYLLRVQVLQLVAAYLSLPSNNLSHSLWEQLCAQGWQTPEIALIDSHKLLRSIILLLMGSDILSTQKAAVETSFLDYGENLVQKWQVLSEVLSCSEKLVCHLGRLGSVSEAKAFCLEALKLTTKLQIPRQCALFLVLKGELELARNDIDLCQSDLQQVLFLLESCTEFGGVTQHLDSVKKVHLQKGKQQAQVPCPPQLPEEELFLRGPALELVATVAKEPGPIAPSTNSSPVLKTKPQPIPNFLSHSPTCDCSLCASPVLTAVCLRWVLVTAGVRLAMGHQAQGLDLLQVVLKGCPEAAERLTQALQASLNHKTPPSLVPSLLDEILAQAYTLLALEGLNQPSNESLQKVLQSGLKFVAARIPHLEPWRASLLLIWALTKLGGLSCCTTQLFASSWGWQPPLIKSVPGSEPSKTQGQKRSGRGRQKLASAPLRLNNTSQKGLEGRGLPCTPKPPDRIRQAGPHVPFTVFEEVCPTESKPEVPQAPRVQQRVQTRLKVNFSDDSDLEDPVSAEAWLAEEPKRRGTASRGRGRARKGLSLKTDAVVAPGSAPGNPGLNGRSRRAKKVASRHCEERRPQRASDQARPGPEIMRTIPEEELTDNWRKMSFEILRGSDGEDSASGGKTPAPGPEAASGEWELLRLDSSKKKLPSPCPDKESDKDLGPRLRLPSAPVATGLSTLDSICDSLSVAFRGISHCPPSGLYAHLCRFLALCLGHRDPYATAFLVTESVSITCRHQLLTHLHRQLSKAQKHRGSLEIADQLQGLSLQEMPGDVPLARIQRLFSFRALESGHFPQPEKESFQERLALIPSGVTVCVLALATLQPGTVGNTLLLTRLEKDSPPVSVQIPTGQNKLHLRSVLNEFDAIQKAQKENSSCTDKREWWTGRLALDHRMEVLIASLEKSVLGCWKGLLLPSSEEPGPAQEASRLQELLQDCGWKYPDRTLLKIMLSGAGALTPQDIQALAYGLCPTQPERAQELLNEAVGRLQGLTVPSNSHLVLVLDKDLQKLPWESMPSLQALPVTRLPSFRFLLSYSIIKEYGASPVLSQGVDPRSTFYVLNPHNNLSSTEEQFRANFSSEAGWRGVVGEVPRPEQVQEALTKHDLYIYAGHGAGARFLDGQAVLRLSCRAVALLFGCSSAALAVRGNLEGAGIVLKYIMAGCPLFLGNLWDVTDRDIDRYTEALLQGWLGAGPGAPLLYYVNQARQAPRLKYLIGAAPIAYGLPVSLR
Assay: Fluorogenic Separase activity assay using (Rad21)2-Rh110 as substrate
Format: biochemical
Conditions: (Rad21)2-Rh110 substrate; four-parameter fit, n=3; read-out: estimated IC50, four-parameter dose-response curve fit
Measurement name: IC50 (µM)
Just the number in µM, nothing appended.

Form field IC50, entry CC1(C)[N+]([O-])=c2ccc([N+](=O)[O-])cc2=[N+]1[O-] [Sepin-1] : 15.8

Where do the numbers come from? From patent US10052310B2.
